- test: Encapsulation of mRNA nanoparticles with lipid amines using Ribogreen assay
- Format: physicochemical
- recorded conditions: CFTR mRNA nanoparticle with lipid amine
- Procedure: Lipids are dissolved in ethanol at a concentration of 24 mg/mL and molar ratios of 49.0:11.2:39.3:0.5 (IL1:DSPC:cholesterol:PEG-DMG-2K) and mixed with the acidification buffer (45 mM acetate buffer at pH 4). The lipid solution and acidification buffer are mixed using a multi-inlet vortex mixer at a 3:7 volumetric ratio of lipid:buffer for mixer 1 and mixer 2 and a 1:3 volumetric ratio of lipid:buffer (25% ethanol) for mixer 3. […]
Counter-ions that a name gives are not always drawn.
quantity: % Encapsulation (Ribogreen) (%)
Your answer should be a plain number; it is taken to be in %.

Past entries and their recorded results:
CC[C@H](CC[C@@H](C)[C@H]1CC[C@H]2[C@@H]3CC=C4C[C@@H](OC(=O)CCCC(=O)N(CCCCNCCC(C)N)CCC(C)N)CC[C@]4(C)[C@H]3CC[C@]12C)C(C)C.Cl.Cl.Cl (stereo partly drawn) :: 97.7
CC(C)CCC[C@@H](C)[C@H]1CC[C@H]2[C@@H]3CC=C4C[C@@H](OC(=O)N(CCCN)CCCCOCCCN)CC[C@]4(C)[C@H]3CC[C@]12C [SA61, dihydrochloride] :: 99.4

[ask] Requested field: % Encapsulation (Ribogreen). Item: CC[C@H](CC[C@@H](C)[C@H]1CC[C@H]2[C@@H]3CC=C4C[C@@H](SSCCC(=O)N(CCCCCCCC(C)(C)N)CCC(C)(C)N)CC[C@]4(C)[C@H]3CC[C@]12C)C(C)C [SA179, dihydrochloride]
[reply] 99.8

[ask] Cool, now CC[C@H](CC[C@@H](C)[C@H]1CC[C@H]2[C@@H]3CC=C4C[C@@H](OC(=O)N(CCCN)CCCCCCCCCCN)CC[C@]4(C)[C@H]3CC[C@]12C)C(C)C [SA96, dihydrochloride]
[reply] 98.9

[ask] Same for CC(C)CCC[C@@H](C)[C@H]1CC[C@H]2[C@@H]3CC=C4C[C@@H](OC(=O)CN(CCCN)CCCCCCCCN)CC[C@]4(C)[C@H]3CC[C@]12C [SA71, trihydrochloride]
[reply] 99.8

[ask] Now the compound CC(C)CCC[C@@H](C)[C@H]1CC[C@H]2[C@@H]3CC=C4C[C@@H](OC(=O)CCC(=O)N(CCC(C)(C)N)CCC(C)(C)N)CC[C@]4(C)[C@H]3CC[C@]12C [SA169, dihydrochloride]
[reply] 99.2

[ask] Note, next up: CC(C)CCC[C@@H](C)[C@H]1CC[C@H]2[C@@H]3CC=C4C[C@@H](OC(=O)C(C)C(=O)N(CCCN)CCCCNCCCN)CC[C@]4(C)[C@H]3CC[C@]12C.Cl.Cl.Cl (stereo partly drawn)
[reply] 99.6

[ask] Now try CC(C)CCC[C@@H](C)[C@H]1CC[C@H]2[C@@H]3CC=C4C[C@@H](OC(=O)CSSCC(=O)N(CCCN)CCCCNCCCN)CC[C@]4(C)[C@H]3CC[C@]12C [SA98, trihydrochloride] .
[reply] 93

[ask] Next record, please: CC(C)CCC[C@@H](C)[C@H]1CC[C@H]2[C@@H]3CC=C4C[C@@H](OC(=O)CCC(=O)N(CCCCNCCC(C)N)CCC(C)N)CC[C@]4(C)[C@H]3CC[C@]12C (stereo partly drawn) [SA160, trihydrochloride]
[reply] 98.1

[ask] Record: CC(C)CCC[C@@H](C)[C@H]1CC[C@H]2[C@@H]3CC=C4C[C@@H](SSCCC(=O)N(CCCCNCCC(C)N)CCC(C)N)CC[C@]4(C)[C@H]3CC[C@]12C (stereo partly drawn) [SA171, trihydrochloride]
[reply] 99.4

[ask] Same for CC[C@H](CC[C@@H](C)[C@H]1CC[C@H]2[C@@H]3CC=C4C[C@@H](OC(=O)CN(CCCN)CCCCNCCCN)CC[C@]4(C)[C@H]3CC[C@]12C)C(C)C
[reply] 98.9

[ask] Now consider CC[C@H](CC[C@@H](C)[C@H]1CC[C@H]2[C@@H]3CC=C4C[C@@H](OC(=O)CCCC(=O)N(CCCN)CCCCNCCCN)CC[C@]4(C)[C@H]3CC[C@]12C)C(C)C [SA117, trihydrochloride] .
[reply] 98.6

[ask] Here is the next compound: CC(C)CCC[C@@H](C)[C@H]1CC[C@H]2[C@@H]3CC=C4C[C@@H](OC(=O)N(CCC(C)(C)N)CCC(C)(C)N)CC[C@]4(C)[C@H]3CC[C@]12C [SA158, dihydrochloride]
[reply] 98.3

[ask] Would you kindly repeat that for CC(C)CCC[C@@H](C)[C@H]1CC[C@H]2[C@@H]3CC=C4C[C@@H](SSCCC(=O)N(CCCCNCCC(C)(C)N)CCC(C)(C)N)CC[C@]4(C)[C@H]3CC[C@]12C.Cl.Cl.Cl ?
[reply] 96.4

[ask] Again, but for CC(C)CCC[C@@H](C)[C@H]1CC[C@H]2[C@@H]3CC=C4C[C@@H](OC(=O)N(CCCN)CCCCCCCCN)CC[C@]4(C)[C@H]3CC[C@]12C [SA60, dihydrochloride]
[reply] 99.5

[ask] What would you report for CC(C)CCC[C@@H](C)[C@H]1CC[C@H]2[C@@H]3CC=C4C[C@@H](OC(=O)N(CCCCNCC5(CN)CC5)CC5(CN)CC5)CC[C@]4(C)[C@H]3CC[C@]12C.Cl.Cl.Cl ?
[reply] 99.4

[ask] Same lookup for CC[C@H](CC[C@@H](C)[C@H]1CC[C@H]2[C@@H]3CC=C4C[C@@H](OC(=O)N(CCCCCCCC(C)(C)N)CCC(C)(C)N)CC[C@]4(C)[C@H]3CC[C@]12C)C(C)C [SA153, dihydrochloride] , please.
[reply] 98.5

[ask] Now consider CC(C)CCC[C@@H](C)[C@H]1CC[C@H]2[C@@H]3CC=C4C[C@@H](SSCCC(=O)N(CCC(C)(C)N)CCC(C)(C)N)CC[C@]4(C)[C@H]3CC[C@]12C [SA174, dihydrochloride] and answer again.
[reply] 98.1

---

// reported PDI per item
- test: Diameter and PDI from DLS measurements of mRNA nanoparticles with lipid amines
- Type: physicochemical
- recorded conditions: CFTR mRNA nanoparticle with lipid amine
Counter-ions that a name gives are not always drawn.
Number only, no unit.

Previously resolved entries follow.
CC(C)CCC[C@@H](C)[C@H]1CC[C@H]2[C@@H]3CC=C4C[C@@H](SSCCC(=O)N(CCC(C)(C)N)CCC(C)(C)N)CC[C@]4(C)[C@H]3CC[C@]12C [SA174, dihydrochloride] :: 0.16
CC[C@H](CC[C@@H](C)[C@H]1CC[C@H]2[C@@H]3CC=C4C[C@@H](SSCCC(=O)N(CCCCNCCC(N)(CC)CC)CCC(N)(CC)CC)CC[C@]4(C)[C@H]3CC[C@]12C)C(C)C [SA181, trihydrochloride] :: 0.13

Consider the additional molecule presented here.
[ask] Param item = CC(C)CCC[C@@H](C)[C@H]1CC[C@H]2[C@@H]3CC=C4C[C@@H](OC(=O)N(CCCCOCCCN(C)C)CCCN(C)C)CC[C@]4(C)[C@H]3CC[C@]12C ; retrieve measured PDI.
[reply] 0.10

---

- test: Diameter and PDI from DLS measurements of mRNA nanoparticles with lipid amines
- Format: physicochemical
- recorded conditions: Luciferase mRNA nanoparticle modified with lipid amine
Structures can show the parent of a compound that is named as a salt.
Reported values of Diameter (nm) for individual entries
# unit: nm | format: bare number

Recorded Diameter (nm), per entry:
CC[C@H](CC[C@@H](C)[C@H]1CC[C@H]2[C@@H]3CC=C4C[C@@H](OC(=O)CCC(=O)N(CCCCCCCC(C)N)CCC(C)N)CC[C@]4(C)[C@H]3CC[C@]12C)C(C)C (stereo partly shown) [SA163, dihydrochloride] :: 71
CC(C)CCC[C@@H](C)[C@H]1CC[C@H]2[C@@H]3CC=C4C[C@@H](SSCCC(=O)N(CCC(C)(C)N)CCC(C)(C)N)CC[C@]4(C)[C@H]3CC[C@]12C [SA174, dihydrochloride] :: 73
CC[C@H](CC[C@@H](C)[C@H]1CC[C@H]2[C@@H]3CC=C4C[C@@H](OC(=O)N(CCCN)CCCCCCCCN)CC[C@]4(C)[C@H]3CC[C@]12C)C(C)C [SA69, dihydrochloride] :: 71

[ask] Quick check: Diameter (nm) of CC(C)CCC[C@@H](C)[C@H]1CC[C@H]2[C@@H]3CC=C4C[C@@H](OC(=O)CCCC(=O)N(CCCCNCCC(C)N)CCC(C)N)CC[C@]4(C)[C@H]3CC[C@]12C.Cl.Cl.Cl (stereo partly shown) [SA125] ?
[reply] 77

---

Reported PDI values for the following molecules.
- test: Diameter and PDI from DLS measurements of mRNA nanoparticles with lipid amines
- Format: physicochemical
- recorded conditions: Luciferase mRNA nanoparticle modified with lipid amine
Structures can show the parent of a compound that is named as a salt.
Give your answer as a number; write no unit.

CCC(N)(CC)CCNCCCCN(CCC(N)(CC)CC)C(=O)CCSS[C@H]1CC[C@@]2(C)C(=CC[C@H]3[C@@H]4CC[C@H]([C@H](C)CCCC(C)C)[C@@]4(C)CC[C@@H]32)C1 [SA184, trihydrochloride] :: 0.12
CCC(N)CCNCCCCN(CCC(N)CC)C(=O)O[C@H]1CC[C@@]2(C)C(=CC[C@H]3[C@@H]4CC[C@H]([C@H](C)CCCC(C)C)[C@@]4(C)CC[C@@H]32)C1.Cl.Cl.Cl (stereo partly drawn) [SA127] :: 0.17
CC(C)CCC[C@@H](C)[C@H]1CC[C@H]2[C@@H]3CC=C4C[C@@H](OC(=O)N(CCCCNC(C)CC(C)N)C(C)CC(C)N)CC[C@]4(C)[C@H]3CC[C@]12C.Cl.Cl.Cl (stereo partly drawn) [SA126] :: 0.18
CC(C)CCC[C@@H](C)[C@H]1CC[C@H]2[C@@H]3CC=C4C[C@@H](OC(=O)[C@H](CCCN)NCCCCCCN)CC[C@]4(C)[C@H]3CC[C@]12C.Cl.Cl.Cl [SA132] :: 0.41
CC(C)CCC[C@@H](C)[C@H]1CC[C@H]2[C@@H]3CC=C4C[C@@H](OC(=O)N(CCCCNCC(F)CN)CC(F)CN)CC[C@]4(C)[C@H]3CC[C@]12C (stereo partly drawn) [SA87, trihydrochloride] :: 0.18

[ask] For the molecule CC[C@H](CC[C@@H](C)[C@H]1CC[C@H]2[C@@H]3CC=C4C[C@@H](OC(=O)CCCC(=O)N(CCCCNCCC(C)(C)N)CCC(C)(C)N)CC[C@]4(C)[C@H]3CC[C@]12C)C(C)C.Cl.Cl.Cl [SA137] , what PDI is on record?
[reply] 0.20

[ask] Follow-up item: CC(C)CCC[C@@H](C)[C@H]1CC[C@H]2[C@@H]3CC=C4C[C@@H](OC(=O)N(CCCCCCCC(C)N)CCC(C)N)CC[C@]4(C)[C@H]3CC[C@]12C (stereo partly drawn) [SA151, dihydrochloride]
[reply] 0.12

[ask] What do you have for CC(C)CCC[C@@H](C)[C@H]1CC[C@H]2[C@@H]3CC=C4C[C@@H](OC(=O)N(CCCC(C)(C)N)CCC(C)(C)N)CC[C@]4(C)[C@H]3CC[C@]12C [SA157, dihydrochloride] ?
[reply] 0.13

[ask] Queued: CC[C@H](CC[C@@H](C)[C@H]1CC[C@H]2[C@@H]3CC=C4C[C@@H](OC(=O)N(CCCCCCCC(C)(C)N)CCC(C)(C)N)CC[C@]4(C)[C@H]3CC[C@]12C)C(C)C [SA153, dihydrochloride]
[reply] 0.15

[ask] Also CC[C@H](CC[C@@H](C)[C@H]1CC[C@H]2[C@@H]3CC=C4C[C@@H](OC(=O)CCCC(=O)N(CCCCCCCC(C)(C)N)CCC(C)(C)N)CC[C@]4(C)[C@H]3CC[C@]12C)C(C)C [SA155, dihydrochloride] ?
[reply] 0.11

[ask] Next entry: CC(C)CCC[C@@H](C)[C@H]1CC[C@H]2[C@@H]3CC=C4C[C@@H](OC(=O)N(CCCN)CCCCOCCCN)CC[C@]4(C)[C@H]3CC[C@]12C [SA61, dihydrochloride]
[reply] 0.16

[ask] Try this molecule too: CC[C@H](CC[C@@H](C)[C@H]1CC[C@H]2[C@@H]3CC=C4C[C@@H](OC(=O)CCCC(=O)N(CCCCNCCC(C)N)CCC(C)N)CC[C@]4(C)[C@H]3CC[C@]12C)C(C)C.Cl.Cl.Cl (stereo partly drawn) [SA136]
[reply] 0.16

[ask] And the next one, CC(C)CCC[C@@H](C)[C@H]1CC[C@H]2[C@@H]3CC=C4C[C@@H](OC(=O)N(CCCCNCC5(CN)CC5)CC5(CN)CC5)CC[C@]4(C)[C@H]3CC[C@]12C.Cl.Cl.Cl [SA128] ?
[reply] 0.16

[ask] Same question for CC(C)CCC[C@@H](C)[C@H]1CC[C@H]2[C@@H]3CC=C4C[C@@H](OC(=O)CN(CCCCCCCCN)C(=O)[C@@H](N)CCCN)CC[C@]4(C)[C@H]3CC[C@]12C.Cl.Cl.Cl [SA129] please.
[reply] 0.16

[ask] How about CC(C)CCC[C@@H](C)[C@H]1CC[C@H]2[C@@H]3CC=C4C[C@@H](OC(=O)N(CCCCNC(C)CCN)C(C)CCN)CC[C@]4(C)[C@H]3CC[C@]12C (stereo partly drawn) [SA74, trihydrochloride] ?
[reply] 0.19
